Consider the following binders and their measured log10(t½) readings.
target: T1, Human C5 (human, UniProt P01031 19-1676); assay: SPR, mAb captured by anti-hFc, 25C
T1 construct: The natural protein has a beta and an alpha chain; also called complement factor 5; complement component 5
parameter: log10(t½) (log10 of the value in h)

binder: H4H12159P (antibody, human IgG4, V domains shown) VH: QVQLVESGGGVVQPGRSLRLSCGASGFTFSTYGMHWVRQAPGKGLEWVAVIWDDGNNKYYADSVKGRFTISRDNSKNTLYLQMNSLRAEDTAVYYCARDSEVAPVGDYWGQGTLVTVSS VL: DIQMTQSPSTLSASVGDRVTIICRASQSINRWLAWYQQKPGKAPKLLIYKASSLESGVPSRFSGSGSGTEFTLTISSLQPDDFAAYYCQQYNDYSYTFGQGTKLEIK
log10(t½): 0.43

binder: H4H12166P6 (antibody, human IgG4, V domains shown, human IgG4 Fc with S108P hinge mutation) VH: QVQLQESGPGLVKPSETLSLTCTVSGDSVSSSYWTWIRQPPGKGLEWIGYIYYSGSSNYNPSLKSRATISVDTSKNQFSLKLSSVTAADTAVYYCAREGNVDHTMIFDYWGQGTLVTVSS VL: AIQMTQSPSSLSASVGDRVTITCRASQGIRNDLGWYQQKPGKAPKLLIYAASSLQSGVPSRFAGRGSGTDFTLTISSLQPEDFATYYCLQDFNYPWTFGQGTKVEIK
log10(t½): 0.02

binder: H4H12168P (antibody, human IgG4, V domains shown) VH: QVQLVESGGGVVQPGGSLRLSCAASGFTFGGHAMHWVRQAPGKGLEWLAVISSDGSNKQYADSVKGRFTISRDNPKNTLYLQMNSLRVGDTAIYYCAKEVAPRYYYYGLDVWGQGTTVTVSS VL: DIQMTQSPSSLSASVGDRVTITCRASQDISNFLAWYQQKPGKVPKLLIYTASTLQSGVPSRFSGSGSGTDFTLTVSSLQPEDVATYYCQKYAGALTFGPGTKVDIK
log10(t½): 0.61

binder: H4H12166P7 (antibody, human IgG4, V domains shown, human IgG4 Fc with S108P hinge mutation) VH: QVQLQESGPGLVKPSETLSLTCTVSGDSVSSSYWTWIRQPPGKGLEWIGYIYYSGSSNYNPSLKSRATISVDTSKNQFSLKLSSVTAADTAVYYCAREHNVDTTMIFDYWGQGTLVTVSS VL: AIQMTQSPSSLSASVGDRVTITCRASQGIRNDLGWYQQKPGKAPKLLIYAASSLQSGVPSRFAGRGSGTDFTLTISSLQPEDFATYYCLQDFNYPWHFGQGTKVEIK
log10(t½): -0.74

binder: H4H12175P (antibody, human IgG4, V domains shown) VH: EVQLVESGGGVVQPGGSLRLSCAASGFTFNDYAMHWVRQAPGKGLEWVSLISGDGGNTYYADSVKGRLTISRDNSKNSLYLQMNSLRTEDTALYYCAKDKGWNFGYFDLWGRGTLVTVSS VL: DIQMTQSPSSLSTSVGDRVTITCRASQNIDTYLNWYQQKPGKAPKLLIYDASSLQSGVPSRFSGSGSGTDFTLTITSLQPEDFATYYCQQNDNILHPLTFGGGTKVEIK
log10(t½): -0.01

binder: H4H12166P5 (antibody, human IgG4, V domains shown, human IgG4 Fc with S108P hinge mutation) VH: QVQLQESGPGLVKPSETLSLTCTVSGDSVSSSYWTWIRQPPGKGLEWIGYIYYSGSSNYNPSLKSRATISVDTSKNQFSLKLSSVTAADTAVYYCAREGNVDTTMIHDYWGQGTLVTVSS VL: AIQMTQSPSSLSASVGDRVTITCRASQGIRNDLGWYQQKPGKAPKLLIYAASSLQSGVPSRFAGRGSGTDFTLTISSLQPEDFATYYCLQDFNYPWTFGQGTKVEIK
log10(t½): -0.23

binder: H4H12161P (antibody, human IgG4, V domains shown) VH: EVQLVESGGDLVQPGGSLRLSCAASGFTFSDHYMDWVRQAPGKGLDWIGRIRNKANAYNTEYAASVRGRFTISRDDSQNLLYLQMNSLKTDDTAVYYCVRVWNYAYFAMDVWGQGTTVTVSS VL: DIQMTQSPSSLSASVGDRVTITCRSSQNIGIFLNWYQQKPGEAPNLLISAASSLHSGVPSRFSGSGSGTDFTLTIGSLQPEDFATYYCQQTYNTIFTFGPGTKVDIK
log10(t½): 0.64

binder: H4H12166P10 (antibody, human IgG4, V domains shown, human IgG4 Fc with S108P hinge mutation) VH: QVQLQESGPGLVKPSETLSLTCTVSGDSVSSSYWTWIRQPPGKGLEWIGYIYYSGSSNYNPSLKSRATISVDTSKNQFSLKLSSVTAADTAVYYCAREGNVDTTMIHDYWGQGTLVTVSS VL: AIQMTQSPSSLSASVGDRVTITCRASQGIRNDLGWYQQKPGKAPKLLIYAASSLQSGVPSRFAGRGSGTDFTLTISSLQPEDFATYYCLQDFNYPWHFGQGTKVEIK
log10(t½): -0.82

binder: H4H12166P4 (antibody, human IgG4, V domains shown, human IgG4 Fc with S108P hinge mutation) VH: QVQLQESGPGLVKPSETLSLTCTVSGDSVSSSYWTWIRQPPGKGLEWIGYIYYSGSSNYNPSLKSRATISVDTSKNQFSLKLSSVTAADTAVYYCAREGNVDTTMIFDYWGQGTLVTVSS VL: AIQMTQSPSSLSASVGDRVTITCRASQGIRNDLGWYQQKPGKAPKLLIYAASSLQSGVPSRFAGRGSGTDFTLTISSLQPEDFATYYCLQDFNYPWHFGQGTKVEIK
log10(t½): 0.04
